Target: 5-hydroxytryptamine receptor 1A (Homo sapiens); also: assay procedure not described here
Sequence (P08908 whole entry): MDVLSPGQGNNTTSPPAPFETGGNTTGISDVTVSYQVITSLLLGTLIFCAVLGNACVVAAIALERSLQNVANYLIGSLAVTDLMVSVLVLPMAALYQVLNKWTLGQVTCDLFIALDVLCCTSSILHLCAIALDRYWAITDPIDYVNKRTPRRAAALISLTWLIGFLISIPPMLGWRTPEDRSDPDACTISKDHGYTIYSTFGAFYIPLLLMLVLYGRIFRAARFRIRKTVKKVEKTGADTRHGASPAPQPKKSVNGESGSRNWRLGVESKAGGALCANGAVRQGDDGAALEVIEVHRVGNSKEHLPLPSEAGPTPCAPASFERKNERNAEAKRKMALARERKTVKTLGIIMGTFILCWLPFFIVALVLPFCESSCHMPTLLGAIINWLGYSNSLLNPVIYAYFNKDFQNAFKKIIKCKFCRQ
measured_attribute: AC50

Query: I'm curious: which AC50 was measured for COc1ccc2c3c1O[C@H]1[C@@H](O)C=C[C@H]4[C@@H](C2)N(C)CC[C@@]341 tested on 5-hydroxytryptamine receptor 1A (Homo sapiens)?; also: assay procedure not described here
Reply: > 10 µM

Query: Return AC50 measured with 5-hydroxytryptamine receptor 1A (Homo sapiens) given this compound: Cc1ccc(-c2cc(C(F)(F)F)nn2-c2ccc(S(N)(=O)=O)cc2)cc1
Reply: > 10 µM

Query: Under 5-hydroxytryptamine receptor 1A (Homo sapiens): AC50 value of N#Cc1ccc([C@H]2CCc3cncn32)c(F)c1 ?
Reply: > 10 µM

Query: Find the measured AC50: item CC(C)C[C@H]1C(=O)N2CCC[C@H]2[C@]2(O)O[C@](NC(=O)[C@@H]3C=C4c5cccc6[nH]c(Br)c(c56)C[C@H]4N(C)C3)(C(C)C)C(=O)N12 , target or system 5-hydroxytryptamine receptor 1A (Homo sapiens). Also: assay procedure not described here.
Reply: 0.319 µM

Query: Find the measured AC50: item COc1ccc(CCNCC(O)COc2cccc(C)c2)cc1OC (configuration not stated) , target or system 5-hydroxytryptamine receptor 1A (Homo sapiens). Also: assay procedure not described here.
Reply: 1.56 µM

Query: Fill in the recorded AC50 for this compound, with 5-hydroxytryptamine receptor 1A (Homo sapiens) as test system: C[C@]12CCC(=O)C=C1CC[C@@H]1[C@@H]2[C@@H](O)C[C@@]2(C)[C@H]1CC[C@]2(O)C(=O)CO [HYDROCORTISONE]
Reply: > 10 µM

Query: State its AC50 on 5-hydroxytryptamine receptor 1A (Homo sapiens): CN(C)CCC(c1ccc(Cl)cc1)c1ccccn1 (configuration not stated)
Reply: > 10 µM

Query: Report AC50 for CCOC(=O)[C@H](CCc1ccccc1)N[C@@H](C)C(=O)N1[C@H](C(=O)O)C[C@@H]2CCC[C@@H]21 tested on 5-hydroxytryptamine receptor 1A (Homo sapiens). Also: assay procedure not described here.
Reply: > 10 µM

Query: Value wanted: AC50 (5-hydroxytryptamine receptor 1A (Homo sapiens)) of entry COc1ccccc1N1CCN(CCCNc2cc(=O)n(C)c(=O)n2C)CC1
Reply: 0.492 µM

Query: Find the measured AC50: item CN1C(C(=O)Nc2ccccn2)=C(O)c2sc(Cl)cc2S1(=O)=O , target or system 5-hydroxytryptamine receptor 1A (Homo sapiens). Also: assay procedure not described here.
Reply: > 10 µM

Query: Entry Cc1cn([C@H]2C[C@H](N=[N+]=[N-])[C@@H](CO)O2)c(=O)[nH]c1=O , system 5-hydroxytryptamine receptor 1A (Homo sapiens): what AC50 was measured?; also: assay procedure not described here
Reply: > 10 µM

Query: API: value(readout= AC50, system= 5-hydroxytryptamine receptor 1A (Homo sapiens), query= C=CCN1C[C@H](C(=O)N(CCCN(C)C)C(=O)NCC)C[C@@H]2c3cccc4[nH]cc(c34)C[C@H]21 ); also: assay procedure not described here
Reply: 0.073 µM

Query: Identify the measured AC50 of O=[N+]([O-])O[C@@H]1CO[C@H]2[C@@H]1OC[C@@H]2O [ISOSORBIDE MONONITRATE] for 5-hydroxytryptamine receptor 1A (Homo sapiens).
Reply: > 10 µM

Query: Any idea what AC50 came out for CCOc1ccccc1OCC1CNCCO1 (configuration not stated) on 5-hydroxytryptamine receptor 1A (Homo sapiens)?
Reply: > 10 µM

Query: Lab request: please report AC50 under test system 5-hydroxytryptamine receptor 1A (Homo sapiens) for CCC(C)n1ncn(-c2ccc(N3CCN(c4ccc(OCC5COC(Cn6cncn6)(c6ccc(Cl)cc6Cl)O5)cc4)CC3)cc2)c1=O (configuration not stated); also: assay procedure not described here
Reply: > 10 µM

Query: What measured AC50 is associated with Cc1c(OCC(F)(F)F)ccnc1C[S+]([O-])c1nc2ccccc2[nH]1 (configuration not stated) on 5-hydroxytryptamine receptor 1A (Homo sapiens)?
Reply: > 10 µM

Query: Kindly state the measured AC50 obtained for CC1=C(C(=O)O)N2C(=O)[C@@H](NC(=O)[C@H](N)c3ccccc3)[C@H]2SC1 [CEPHALEXIN ANHYDROUS] with 5-hydroxytryptamine receptor 1A (Homo sapiens).
Reply: > 10 µM

====

For Growth hormone secretagogue receptor type 1 (Homo sapiens), measured AC50 is reported for the entries below.

Query: What is its AC50 for Growth hormone secretagogue receptor type 1 (Homo sapiens)? Entry: NCC(CC(=O)O)c1ccc(Cl)cc1 (centres undefined) [BACLOFEN]
Reply: > 30 µM

Query: Param readout = AC50; param system = Growth hormone secretagogue receptor type 1 (Homo sapiens); param query = CCC1(CC)C(=O)NCC(C)C1=O (centres undefined) [METHYPRYLON] ; response: value; also: assay procedure not described here
Sequence (Q92847 whole entry): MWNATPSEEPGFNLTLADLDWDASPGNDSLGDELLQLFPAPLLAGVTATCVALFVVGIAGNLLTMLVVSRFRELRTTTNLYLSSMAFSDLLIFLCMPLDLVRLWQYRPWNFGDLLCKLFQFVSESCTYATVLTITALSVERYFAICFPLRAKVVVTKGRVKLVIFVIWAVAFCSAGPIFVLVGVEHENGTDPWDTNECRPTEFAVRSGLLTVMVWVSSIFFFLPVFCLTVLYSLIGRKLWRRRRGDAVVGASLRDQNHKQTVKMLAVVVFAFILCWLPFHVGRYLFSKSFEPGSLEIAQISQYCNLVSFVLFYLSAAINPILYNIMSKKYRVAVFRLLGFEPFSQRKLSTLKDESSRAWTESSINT
Reply: > 30 µM

Query: Identify the measured AC50 of Cc1ccc(S(=O)(=O)NC(=O)NN2CC3CCCC3C2)cc1 (centres undefined) [GLICLAZIDE] for Growth hormone secretagogue receptor type 1 (Homo sapiens).
Reply: > 10 µM

Query: Item: NCC[C@H](O)C(=O)N[C@@H]1C[C@H](N)[C@@H](O[C@H]2O[C@H](CN)[C@@H](O)[C@H](O)[C@H]2O)[C@H](O)[C@H]1O[C@H]1O[C@H](CO)[C@@H](O)[C@H](N)[C@H]1O [AMIKACIN] Test system: Growth hormone secretagogue receptor type 1 (Homo sapiens) Read-out: AC50 Value: ?; also: assay procedure not described here
Reply: > 10 µM

====

For each record, write down the corresponding AC50.

Query: Given the entry C[C@H]1COc2c(C3(N)CC3)c(F)cc3c(=O)c(C(=O)O)cn1c23 , what AC50 was observed with Delta-type opioid receptor (Homo sapiens)?
Reply: > 30 µM

Query: Query for Delta-type opioid receptor (Homo sapiens): what AC50 does the record show for O=C(OCC(O)CO)c1ccccc1Nc1ccnc2cc(Cl)ccc12 (configuration not stated) ?
Reply: > 30 µM

Query: Delta-type opioid receptor (Homo sapiens) / AC50 / CC[C@H]1CN2CCc3cc(OC)c(OC)cc3[C@@H]2C[C@@H]1C[C@H]1NCCc2cc(OC)c(OC)cc21 : value?
Reply: > 30 µM

Query: Lab note: need AC50 for CN(C)CCC=C1c2ccccc2C(C)(C)c2ccccc21 on Delta-type opioid receptor (Homo sapiens), anyone have it?
Reply: > 30 µM

Query: # query: AC50 | item O=C(O)C1=C(CSc2nnnn2CS(=O)(=O)O)CS[C@@H]2[C@H](NC(=O)[C@H](O)c3ccccc3)C(=O)N12 | system: Delta-type opioid receptor (Homo sapiens); also: assay procedure not described here
Reply: > 30 µM

Query: Delta-type opioid receptor (Homo sapiens) / AC50 / CC1(C)O[C@@H]2C[C@H]3[C@@H]4CCC5=CC(=O)C=C[C@]5(C)[C@H]4[C@@H](O)C[C@]3(C)[C@]2(C(=O)CO)O1 [DESONIDE] : value?
Reply: > 30 µM

Query: Lab note: need AC50 with Delta-type opioid receptor (Homo sapiens) for entry CCCC(C)C1(CC)C(=O)NC(=O)NC1=O (configuration not stated) , please look it up.
Sequence (P41143 whole entry): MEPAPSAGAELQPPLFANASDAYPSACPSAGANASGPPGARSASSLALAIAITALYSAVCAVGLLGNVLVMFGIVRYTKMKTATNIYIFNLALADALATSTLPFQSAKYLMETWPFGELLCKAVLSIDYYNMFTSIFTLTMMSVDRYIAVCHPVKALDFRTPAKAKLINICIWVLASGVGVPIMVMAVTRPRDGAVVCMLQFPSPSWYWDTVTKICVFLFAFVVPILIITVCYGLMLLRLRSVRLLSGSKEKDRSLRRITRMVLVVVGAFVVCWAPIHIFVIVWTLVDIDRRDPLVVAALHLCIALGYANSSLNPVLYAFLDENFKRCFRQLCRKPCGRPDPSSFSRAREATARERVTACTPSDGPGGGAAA
Reply: 19 µM

Query: Request - read-out AC50 | tested on Delta-type opioid receptor (Homo sapiens) | compound COc1ccc2c3c1O[C@H]1[C@@H](O)CC[C@H]4[C@@H](C2)N(C)CC[C@@]341 [DIHYDROCODEINE]; also: assay procedure not described here
Reply: > 30 µM

Query: Give the reported AC50 for CO[C@H]1C[C@@H]2CC[C@@H](C)[C@@](O)(O2)C(=O)C(=O)N2CCCC[C@H]2C(=O)O[C@H]([C@H](C)C[C@@H]2CC[C@@H](O)[C@H](OC)C2)CC(=O)[C@H](C)/C=C(\C)[C@@H](O)[C@@H](OC)C(=O)[C@H](C)C[C@H](C)/C=C/C=C/C=C/1C (system: Delta-type opioid receptor (Homo sapiens)). Also: assay procedure not described here.
Reply: > 30 µM

Query: Give Delta-type opioid receptor (Homo sapiens) AC50 for CN1CCN(C2=Nc3ccccc3Sc3ccc(Cl)cc32)CC1
Reply: 22 µM

Query: Form: Entry = O=C(O)CCCCCCNC1c2ccccc2CCc2ccccc21 | System = Delta-type opioid receptor (Homo sapiens) | AC50 = ____; also: assay procedure not described here
Reply: > 30 µM

Query: Hello, I am looking for reported AC50 with Delta-type opioid receptor (Homo sapiens) for O=[N+]([O-])c1cn2c(n1)OC[C@@H](OCc1ccc(OC(F)(F)F)cc1)C2 . Could you help?
Reply: > 10 µM

Query: # returns recorded AC50 (system: Delta-type opioid receptor (Homo sapiens)) for CN(C)CCc1c[nH]c2ccc(C[C@H]3COC(=O)N3)cc12; also: assay procedure not described here
Reply: > 10 µM

Query: Give recorded AC50 with Delta-type opioid receptor (Homo sapiens) for the following compound: C=CCC1(CC(C)C)C(=O)NC(=O)NC1=O
Reply: > 30 µM

Query: What value of AC50 on Delta-type opioid receptor (Homo sapiens) does Cc1cccc(Nc2ccccc2C(=O)O)c1C have?
Reply: > 30 µM

Query: Which measured AC50 belongs to CC(CC(c1ccccc1)c1ccccc1)NC(C)(C)C (configuration not stated) , tested on Delta-type opioid receptor (Homo sapiens)?; also: assay procedure not described here
Reply: > 30 µM

Query: Tell me reported AC50 for Cc1nc([N+](=O)[O-])cn1-c1ccc([N+](=O)[O-])cc1 , tested with Delta-type opioid receptor (Homo sapiens).
Reply: > 30 µM
